The reader will find reported pKd values listed item by item below.
study.system: UniProtKB P01116
Sequence (P01116 1-188 isoform P01116-2): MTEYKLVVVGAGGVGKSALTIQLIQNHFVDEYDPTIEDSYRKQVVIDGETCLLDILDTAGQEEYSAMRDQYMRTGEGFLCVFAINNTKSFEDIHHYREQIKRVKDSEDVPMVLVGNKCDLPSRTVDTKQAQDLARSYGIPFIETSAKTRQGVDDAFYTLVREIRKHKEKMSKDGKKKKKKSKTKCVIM
protocol.summary: Binding to KRAS by surface plasmon resonance (SPR), dissociation constant KD
condition.notes: Single Cycle Kinetics, 1:1 binding model
Note: pKd values are expressed as the negative base-10 logarithm of concentration in M.

Below, each entry is followed by its recorded pKd result.
>  <compound>
CCO[C@@H]1C[C@H]2C(=O)NC3(CCC3)C(=O)N(C)[C@@H](C(CC)CC)C(=O)N(C)[C@H](C(=O)N(C)C)CC(=O)N(C)[C@@H](CC)C(=O)N[C@@H]([C@@H](C)CC)C(=O)N(C)CC(=O)N(C)[C@H]3C/C=C\CCN(C3=O)[C@@H](Cc3ccc(C(F)(F)F)cc3)C(=O)N(C)CC(=O)N[C@@H](CCc3ccc4sccc4c3)C(=O)N2C1 [PP1223]

>  <pKd>
8.92

$$$$
>  <compound>
CCO[C@@H]1C[C@H]2C(=O)NC3(CC(C)(C)C3)C(=O)N(C)[C@@H](C(CC)CC)C(=O)N(C)[C@H](C(=O)N3CCCC3)CC(=O)N(C)[C@@H](COC)C(=O)N[C@@H]([C@@H](C)CC)C(=O)N(C)CC(=O)N(C)[C@H]3C/C=C\CCN(C3=O)[C@@H](Cc3ccc(C)cc3)C(=O)N(C)CC(=O)N[C@@H](CCc3cc(F)c(C(F)(F)F)c(F)c3)C(=O)N2C1 [PP2139]

>  <pKd>
9.42

$$$$

Consider CCO[C@@H]1C[C@H]2C(=O)NC3(CCCC3)C(=O)N(C)[C@@H](C3CCCC3)C(=O)N(C)[C@H](C(=O)N(C)C)CC(=O)N(C)[C@@H](CC(C)C)C(=O)N[C@@H]([C@@H](C)CC)C(=O)N(C)CC(=O)N(C)[C@H]3C/C=C\CCN(C3=O)[C@@H](CC3CCCCC3)C(=O)N(C)CC(=O)N[C@@H](CCc3cc(F)c(C(F)(F)F)c(F)c3)C(=O)N2C1 [PP1473] . Its measured pKd is 9.72
